Source: patent US6656971B2

molecular target: human recombinant CyPA (Homo sapiens, UniProt P62937); assay: Semiautomated microtiter plate assay of rotamase activity inhibition, human recombinant CyPA; assay type: biochemical; details: Table B, value without asterisk: human recombinant CyPA
Sequence (P62937 whole entry): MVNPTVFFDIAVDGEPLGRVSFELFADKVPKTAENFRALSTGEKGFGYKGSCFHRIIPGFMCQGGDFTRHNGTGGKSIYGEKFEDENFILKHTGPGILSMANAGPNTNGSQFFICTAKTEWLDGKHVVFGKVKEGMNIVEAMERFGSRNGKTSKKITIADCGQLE
Readout Name: IC50

S=C(Nc1cc(Cl)cc(Cl)c1)Nc1ccc(Nc2ccc(Oc3ccccc3)cc2)c(NC(=S)Nc2cc(Cl)cc(Cl)c2)c1 = 719 nM
O=C(Nc1cccc(C(F)(F)F)c1)c1cc(C(=O)Nc2cccc(C(F)(F)F)c2)cc(-c2cccc3ccccc23)c1 = 3420 nM
S=C(Nc1cc(Cl)cc(Cl)c1)Nc1cc(NC(=S)Nc2cc(Cl)cc(Cl)c2)cc(Nc2ccc(Br)cc2)c1 = 807 nM
O=C(Nc1cc(COc2ccc(Cl)c(Cl)c2)cc(NC(=O)c2cc(Cl)cc(Cl)c2)c1)c1cc(Cl)cc(Cl)c1 = 3790 nM
CS/C(=N\c1cc(Cl)cc(Cl)c1)Nc1cc(NC(=O)c2cc(Cl)cc(Cl)c2)cc(Nc2cccc(C(F)(F)F)c2)c1 = 1580 nM

Prompt: Consider the compound `O=C(Nc1cccc(C(F)(F)F)c1)c1cc(/C=C/c2ccc3ccccc3c2)cc(C(=O)Nc2cccc(C(F)(F)F)c2)c1` and give its measured IC50.
Completion: 2030 nM

Prompt: What would you report for `N#Cc1ccccc1-c1ccc(COc2cc(C(=O)NCCc3ccc(Cl)c(Cl)c3)cc(C(=O)NCCc3ccc(Cl)c(Cl)c3)c2)cc1` ?
Completion: 1730 nM

---

target: human recombinant CyPA (Homo sapiens, UniProt P62937); experiment: Semiautomated microtiter plate assay of rotamase activity inhibition, human recombinant CyPA; format: biochemical; settings: Table B, value without asterisk: human recombinant CyPA
Reported IC50 by item:
Just the number in nM, nothing appended.

For orientation, consider the following solved cases.
O=C(Nc1cc(Cl)c(Cl)c(Cl)c1)c1cc(OCc2ccc(Cl)c(Cl)c2)cc(C(=O)Nc2cc(Cl)c(Cl)c(Cl)c2)c1 [Compound 32] = 51.5
O=C(Nc1cccc(C(F)(F)F)c1)c1cc(C(=O)Nc2cccc(C(F)(F)F)c2)cc(-c2ccc3ccccc3c2)c1 [Compound 18] = 1320
O=C(Nc1cc(Cl)cc(Cl)c1)c1cc(COc2ccc(Cl)c(Cl)c2)cc(C(=O)Nc2cc(Cl)cc(Cl)c2)c1 [Compound 20] = 499

Prompt: Notebook: pull reported IC50 for human recombinant CyPA (Homo sapiens, UniProt P62937), entry O=C(NNC(=O)c1cc(O)cc(NC(=O)c2cccc(C(F)(F)F)c2)c1)c1ccccc1 [Compound 15]
Completion: 9100

---

molecular target: recombinant rat CyPA-GST fusion protein (Rattus norvegicus, UniProt P10111); construct: made in house; host or cells: E. coli BL21; assay: Rotamase (PPIase) inhibition, chymotrypsin-coupled cuvette assay, rat CyPA-GST fusion protein; assay type: biochemical; conditions: Table A, value with asterisk: recombinant rat CyPA-GST fusion protein
Sequence (P10111 2-164): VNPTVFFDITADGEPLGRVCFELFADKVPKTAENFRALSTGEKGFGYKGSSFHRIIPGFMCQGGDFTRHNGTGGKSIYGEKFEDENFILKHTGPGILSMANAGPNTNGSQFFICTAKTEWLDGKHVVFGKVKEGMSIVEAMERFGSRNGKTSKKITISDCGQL
Readout Name: log10 IC50 (log10 of the value in nM)
# values: log10(IC50), units nM

For orientation, consider the following solved cases.
O=C(Nc1ccc(Cl)c(C(=O)c2ccccc2)c1)c1cc(Cl)cc(Cl)c1 = 3.19
COc1ccc(NC(=O)C(c2ccccc2)c2ccccc2)cc1OCc1cccc2ccccc12 = 3.01
COc1ccc(NC(=S)NC(=O)c2ccccc2)cc1COc1cc(Cl)cc(Cl)c1 = 3.58

Prompt: Consider the compound `O=C(Nc1ccc(Cl)c(Cl)c1)c1cc(OCc2ccccc2)cc(C(=O)Nc2ccc(Cl)c(Cl)c2)c1` and give its measured log10 IC50.
Completion: 2.58

Prompt: What would you report for `O=C1c2ccccc2C(=O)N1Cc1cc(NC(=S)Nc2cc(Cl)cc(Cl)c2)cc(NC(=S)Nc2cc(Cl)cc(Cl)c2)c1` ?
Completion: 2.33
